Listing of recorded absorbance 450 nm minus 540 nm by entry.
Target of assay: T1, peptide HNGGLCEEISQEVR (SEQ ID NO:82), N-terminally biotinylated (human)
T1 construct: Human lactadherin 14-mer with part of the RGD domain at the C-terminus
T1 peptide: Biotin-HNGGLCEEISQEVR
Method: ELISA, biotin-peptide on neutravidin plate, antibody 1 ug/ml
Ends that are not written are not given here. * marks the point of attachment. Biotin = O=C1N[C@H]2[C@H](CS[C@H]2CCCCC(=O)*)N1
Remember to quote the unit after the number.

Examples with answers:
anti-lactadherin antibody 399A12 (antibody, V domains shown, Murine monoclonal, kappa light chain; Variable regions identical to those of 416H9; also called hybridoma 399A12; LMBP 9491CB) VH: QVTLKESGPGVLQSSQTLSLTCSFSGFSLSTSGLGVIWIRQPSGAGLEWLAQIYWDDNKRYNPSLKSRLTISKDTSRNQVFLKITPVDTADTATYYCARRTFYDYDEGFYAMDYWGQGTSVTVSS VL: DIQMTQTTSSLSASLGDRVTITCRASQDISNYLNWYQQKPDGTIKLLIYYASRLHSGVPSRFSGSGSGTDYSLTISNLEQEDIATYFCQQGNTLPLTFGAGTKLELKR = 0.02 absorbance
anti-lactadherin antibody 311A7 (antibody, IgG1, V domains shown, also called murine 311A7; hybridoma 311A7) VH: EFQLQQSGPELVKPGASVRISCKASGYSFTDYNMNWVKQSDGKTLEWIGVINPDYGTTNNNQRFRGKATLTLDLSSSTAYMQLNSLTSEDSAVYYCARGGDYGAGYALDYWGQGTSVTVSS VL: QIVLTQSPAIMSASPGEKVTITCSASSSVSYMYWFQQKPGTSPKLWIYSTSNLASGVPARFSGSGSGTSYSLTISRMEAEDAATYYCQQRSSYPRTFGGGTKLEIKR = 0.02 absorbance

Identify the reported absorbance 450 nm minus 540 nm for the following entry. huMc3 antibody (antibody, V domains shown) VH: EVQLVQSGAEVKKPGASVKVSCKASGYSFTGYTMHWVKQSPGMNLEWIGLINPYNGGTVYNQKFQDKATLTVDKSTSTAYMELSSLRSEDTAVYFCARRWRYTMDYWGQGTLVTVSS VL: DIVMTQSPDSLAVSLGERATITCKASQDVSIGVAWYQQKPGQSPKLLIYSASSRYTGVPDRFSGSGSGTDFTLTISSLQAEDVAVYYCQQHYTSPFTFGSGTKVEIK
0.08 absorbance
